# TARGET_DESC: Cytochrome P450 3A4 (Homo sapiens)
# ASSAY_METHOD_TEXT: Cytochrome P450 Family 3 Subfamily A Member 4 (CYP3A4) small molecule antagonists: luciferase reporter qHTS assay (AID 1671201); note: nearly all actives have a fitted effect of over 50% in size
# EXPERIMENTAL_CONTEXT: P450-Glo CYP3A4 enzyme, luciferin luminescence, 1 h; series mostly up to 115 µM
Records with an inconclusive call do not appear. Active and inactive are the calls of the source. Calls come from the whole dose curve; as a rule, active = well fitted inhibition curve with a large enough effect in the repeat runs; inconclusive = weak or mixed curves; inactive = no such curve, though single readings can be large or run the other way.
Hello, when you answer, please use one of the following outcomes: YES for active, NO for inactive

COMPOUND: CC1COC(Cn2cncn2)(c2ccc(Oc3ccc(Cl)cc3)cc2Cl)O1 (configuration not stated)
GROUP_LABEL: YES
--
COMPOUND: CCOC(=O)C(O)(c1ccc(Cl)cc1)c1ccc(Cl)cc1
GROUP_LABEL: NO

Could you now look at the following compound, please?
Identify the outcome logged in this assay for the compound shown: "CN1CSC(=S)N(C)C1"
NO

---

# TARGET_DESC: Acetylcholinesterase (Homo sapiens)
# ASSAY_METHOD_TEXT: Acetylcholinesterase (AChE) small molecule antagonists: enzyme-based qHTS assay (AID 1347397); note: nearly all actives have a fitted effect of over 55% in size
# EXPERIMENTAL_CONTEXT: AChE enzyme activity inhibition; series mostly up to 115 µM
Calls of active or inactive are those of the source. Calls come from the whole dose curve.
Hello, when you answer, please use one of the following outcomes: YES = active, NO = inactive

COMPOUND: O=C(O)c1ccco1
GROUP_LABEL: NO

COMPOUND: SCCc1cnccn1
GROUP_LABEL: NO

COMPOUND: Cc1cc(=O)oc2cc(O)ccc12
GROUP_LABEL: NO

Identify the outcome logged in this assay for the compound shown: "Clc1ccccc1-c1ccccc1Cl"
NO

One more compound: CC(C(=O)O)c1cccc(C(=O)c2ccccc2)c1 (centres undefined)
NO

One more compound: "Cn1c(=O)c2c(ncn2CC2OCCO2)n(C)c1=O"
NO

One more compound: "N[C@@H](CCC(=O)Nc1ccc([N+](=O)[O-])cc1)C(=O)O"
NO

One more compound: "CCC(N)(CO)CO"
NO

One more compound: "Oc1ccc(Cl)cc1Cc1cc(Cl)ccc1O"
NO

---

# ASSAY_METHOD_TEXT: qHTS assay to identify small molecule antagonists of the sonic hedgehog signaling (Shh) pathway - cell viability counter screen (AID 1259367); note: nearly all actives have a fitted effect of over 55% in size
# EXPERIMENTAL_CONTEXT: NIH/3T3 Gli1-Luc viability, CellTiter-Fluor, 24 h; series mostly up to 92.4 µM
Records with an inconclusive call do not appear. Activity calls are given as the source filed them. Calls come from the whole dose curve; as a rule, active = well fitted cell-killing curve with a large enough effect in the repeat runs; inconclusive = weak or mixed curves, or effect the other way; inactive = no such curve, though single readings can be large or run the other way.

MOLECULE: O=[N+]([O-])c1c(Cl)c(Cl)cc(Cl)c1Cl
outcome: inactive
//
MOLECULE: Cc1nnc2n1-c1sc(CCc3ccc(CC(C)C)cc3)cc1C(c1ccccc1Cl)=NC2C (stereo not drawn)
outcome: inactive
//
MOLECULE: Oc1c(I)cc(I)cc1I
outcome: inactive

---

# ASSAY_METHOD_TEXT: qHTS assay to identify small molecule antagonists of the peroxisome proliferator-activated receptor delta (PPARd) signaling pathway - cell viability counter screen (AID 743213); note: nearly all actives have a fitted effect of over 50% in size
# EXPERIMENTAL_CONTEXT: PPARd-bla HEK293H viability, CellTiter-Glo luminescence, 17 h; series mostly up to 62 µM
Results filed as inconclusive are left out. Active and inactive are the calls of the source. Calls come from the whole dose curve; as a rule, active = well fitted cell-killing curve with a large enough effect in the repeat runs; inconclusive = weak or mixed curves; inactive = no such curve, though single readings can be large or run the other way.
Hello, when you answer, please use one of the following outcomes: yes for active, no for inactive

Use the examples below as a reference point.
COMPOUND: CCOC(=O)C(O)(c1ccc(Cl)cc1)c1ccc(Cl)cc1
GROUP_LABEL: yes
--
COMPOUND: O=C1C(I)=CC(=C(c2cc(I)c(O)c(I)c2)c2ccccc2C(=O)O)C=C1I
GROUP_LABEL: no
--
COMPOUND: COc1cc(OC)c(OC)cc1C=O
GROUP_LABEL: no
--
COMPOUND: c1ccc2c(c1)Sc1ccccc1N2CC1CN2CCC1CC2 (stereo unspecified)
GROUP_LABEL: yes
--
COMPOUND: Cc1ccc(N(SC(F)(Cl)Cl)S(=O)(=O)N(C)C)cc1
GROUP_LABEL: yes

Could you now look at the following compound, please?
Identify the outcome logged in this assay for the compound shown: "Clc1ccccc1-c1ccccc1Cl"
no

---

# TARGET_DESC: Acetylcholinesterase (Homo sapiens) (UniProt P22303)
# Sequence (P22303 whole entry, looked up): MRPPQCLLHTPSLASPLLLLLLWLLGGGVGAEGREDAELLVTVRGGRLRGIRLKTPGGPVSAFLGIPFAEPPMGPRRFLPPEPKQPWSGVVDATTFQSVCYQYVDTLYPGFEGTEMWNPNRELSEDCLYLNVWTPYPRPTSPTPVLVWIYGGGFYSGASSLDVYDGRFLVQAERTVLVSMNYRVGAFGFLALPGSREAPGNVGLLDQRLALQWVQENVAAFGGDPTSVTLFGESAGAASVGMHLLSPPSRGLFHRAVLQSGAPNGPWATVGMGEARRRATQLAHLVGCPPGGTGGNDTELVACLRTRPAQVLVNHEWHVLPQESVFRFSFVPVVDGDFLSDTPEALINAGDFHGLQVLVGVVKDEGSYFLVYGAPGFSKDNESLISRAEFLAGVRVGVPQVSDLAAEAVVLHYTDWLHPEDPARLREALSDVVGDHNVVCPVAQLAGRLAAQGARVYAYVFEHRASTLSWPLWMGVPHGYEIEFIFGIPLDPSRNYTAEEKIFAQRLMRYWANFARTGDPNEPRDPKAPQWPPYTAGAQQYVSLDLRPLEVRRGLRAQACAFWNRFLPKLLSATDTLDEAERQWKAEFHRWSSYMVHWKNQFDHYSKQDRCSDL
# ASSAY_METHOD_TEXT: Acetylcholinesterase (AChE) small molecule antagonists: fluorescence cell-based qHTS assay (AID 1347398); note: nearly all actives have a fitted effect of over 50% in size
# EXPERIMENTAL_CONTEXT: SH-SY5Y cells; AChE activity; series mostly up to 115 µM
Results filed as inconclusive are left out. The source made the active and inactive calls. Calls come from the whole dose curve.

MOLECULE: C#CC(C)N(C)C(=O)Nc1ccc(Cl)cc1 (centres undefined)
outcome: inactive
//
MOLECULE: Clc1cccc(-c2cc(Cl)cc(Cl)c2)c1
outcome: inactive
//
MOLECULE: CCCCCC[C@@H](O)C/C=C\CCCCCCCC(=O)OCC(O)CO (some centres undefined)
outcome: inactive
//
MOLECULE: CC1(C)[C@@H](O[C@H]2O[C@H](C(=O)O)[C@@H](O)[C@H](O)[C@H]2O[C@@H]2O[C@H](C(=O)O)[C@@H](O)[C@H](O)[C@H]2O)CC[C@]2(C)[C@H]3C(=O)C=C4[C@@H]5C[C@@](C)(C(=O)O)CC[C@]5(C)CC[C@@]4(C)[C@]3(C)CC[C@@H]12
outcome: inactive

---

# ASSAY_METHOD_TEXT: A CellTox Green Cytotoxicity Assay to monitor cytotoxicity in HepG2 cells - 32 hour (AID 1224883); note: nearly all actives have a fitted effect of over 50% in size
# EXPERIMENTAL_CONTEXT: CellTox Green fluorescence; series mostly up to 76.8 µM
# Text: National Center for Advancing Translational Sciences [NCATS] NIH Chemical Genomics Center [NCGC] U.S. Environmental Protection Agency [EPA] National Institutes of Environmental Health Sciences [NIEHS] National Toxicology Program [NTP] Cell-based models are critical for drug discovery. […] Viable cells produce no appreciable increases in fluorescence. Therefore, the fluorescence signal produced by the binding interaction with dead cell DNA is proportional to cytotoxicity. […]
Inconclusive results are not listed. Calls of active or inactive are those of the source. The call rests on the fitted dose curve; in most records, active means well fitted activation curve with a large enough effect in the repeat runs; inconclusive means weak or mixed curves; inactive means flat fitted curve, though single readings scatter.

RECORD_SMILES: O=C(c1ccccc1)C(Cl)Cl
outcome: inactive
//
RECORD_SMILES: CCN(CC)C(=O)Cl
outcome: inactive
//
RECORD_SMILES: O=C1C(I)=CC(=C(c2cc(I)c(O)c(I)c2)c2ccccc2C(=O)O)C=C1I
outcome: inactive

---

# ASSAY_METHOD_TEXT: qHTS assay to identify small molecule agonists of the estrogen receptor beta (ER-beta) signaling pathway - cell viability counter screen (AID 1259380); note: nearly all actives have a fitted effect of over 30% in size
# EXPERIMENTAL_CONTEXT: ER-beta-bla HEK293T viability, CellTiter-Glo luminescence, 16 h; series mostly up to 92.4 µM
Records with an inconclusive call do not appear. Calls of active or inactive are those of the source. The call rests on the fitted dose curve; in most records, active means well fitted cell-killing curve with a large enough effect in the repeat runs; inconclusive means weak or mixed curves, or effect the other way; inactive means flat fitted curve, though single readings scatter.
Hello, when you answer, please use one of the following outcomes: class 1 = active, class 0 = inactive

MOLECULE: CO/C=C(/C(=O)OC)c1ccccc1Oc1cc(Oc2ccccc2C#N)ncn1
GROUP_LABEL: class 1

MOLECULE: CCN(CC)C(=O)Cl
GROUP_LABEL: class 0

MOLECULE: O=C(Nc1ccccc1-c1ccc(Cl)cc1)c1cccnc1Cl
GROUP_LABEL: class 1

Could you now look at the following molecule, please?
Identify the outcome logged in this assay for the molecule shown: "O=C(c1ccccc1)C(Cl)Cl"
class 0

---

# ASSAY_METHOD_TEXT: qHTS assay to identify small molecule agonists of the AP-1 signaling pathway - cell viability counter screen (AID 1159525); note: nearly all actives have a fitted effect of over 55% in size
# EXPERIMENTAL_CONTEXT: ME-180 (cervical carcinoma) AP-1-bla cells viability, ATP luminescence, 5 h; series mostly up to 76.8 µM
Results filed as inconclusive are left out. The source made the active and inactive calls. Calls follow the shape of the full dose curve.
Hello, when you answer, please use one of the following outcomes: True = active, False = inactive

Use the examples below as a reference point.
COMPOUND: ClC(Cl)=C(c1ccc(Cl)cc1)c1ccccc1Cl
GROUP_LABEL: False
//
COMPOUND: CNC(=O)Oc1cc(C)c(SC)c(C)c1
GROUP_LABEL: False
//
COMPOUND: CC1COC(Cn2cncn2)(c2ccc(Oc3ccc(Cl)cc3)cc2Cl)O1 (configuration not stated)
GROUP_LABEL: False

Identify the outcome logged in this assay for the compound shown: "ClC1=C(Cl)[C@]2(Cl)[C@@H]3[C@@H](Cl)[C@H]4O[C@H]4[C@@H]3C1(Cl)C2(Cl)Cl"
True

---

# ASSAY_METHOD_TEXT: qHTS assay for identifying genotoxic compounds that show differential cytotoxicity against isogenic chicken DT40 cell lines with known DNA damage response pathways - Rad54/Ku70 mutant cell line (AID 743015); note: nearly all actives have a fitted effect of over 60% in size
# EXPERIMENTAL_CONTEXT: DT40 Rad54/Ku70 mutant viability, CellTiter-Glo, 40 h; series mostly up to 66.8 µM
Inconclusive results are not listed. Active and inactive are the calls of the source. Calls come from the whole dose curve; as a rule, active = well fitted cell-killing curve with a large enough effect in the repeat runs; inconclusive = weak or mixed curves; inactive = no such curve, though single readings can be large or run the other way.
Hello, when you answer, please use one of the following outcomes: active, inactive

Use the examples below as a reference point.
MOLECULE: CC(=O)[C@@]1(O)CC[C@H]2[C@@H]3CCC4=CC(=O)CC[C@]4(C)C3(F)[C@@H](O)C[C@@]21C (some centres not stated)
GROUP_LABEL: inactive

MOLECULE: CO/C=C(/C(=O)OC)c1ccccc1Oc1cc(Oc2ccccc2C#N)ncn1
GROUP_LABEL: active

MOLECULE: C[C@]12CC[C@H](O)C[C@H]1CC[C@@H]1[C@@H]2CC[C@]2(C)[C@@H](c3ccc(=O)oc3)C[C@H]3O[C@]132
GROUP_LABEL: active

Identify the outcome logged in this assay for the molecule shown: CC(Cc1ccccc1)NC=O (configuration not stated)
inactive

One more molecule: "O=c1c2ccccc2[se]n1-c1ccccc1"
active

One more molecule: NCC(O)c1cccc(O)c1 (configuration not stated)
inactive

One more molecule: "N#CC(C#N)=Cc1cc(O)c(O)c(O)c1"
active

One more molecule: "Cc1ccccc1-n1c(C)nc2ccccc2c1=O"
active

One more molecule: "C[C@@H](CO)NC(=O)[C@@H]1C=C2c3cccc4[nH]cc(c34)C[C@H]2N(C)C1"
inactive
